Origin of measurements: the RNAGym collection of RNA variant scans (doi:10.7554/elife.90254)

Measured self-cleavage values are reported for all entries that follow.
B1: OR4K15 (parent)
chain: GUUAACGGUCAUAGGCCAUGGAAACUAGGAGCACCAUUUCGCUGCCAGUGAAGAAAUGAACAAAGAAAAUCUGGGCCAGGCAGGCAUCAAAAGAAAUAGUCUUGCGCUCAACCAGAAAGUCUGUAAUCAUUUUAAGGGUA

Variants of: B1
Assay: self-cleavage, relative activity (ratio to wild type); higher = more cleavage; in vitro, sequencing; the parent is a self-cleaving ribozyme
assayEndpoint: self-cleavage

> print(dat)
   variantlabel  assayendpoint  endpointresult
1     C46U A62U  self-cleavage            1.83
2          C85G  self-cleavage            1.18
3    A67G A140C  self-cleavage            1.47
4     A67G A69U  self-cleavage            1.32
5     A13G A54U  self-cleavage            0.74
6   A125G A129U  self-cleavage            0.01
7     G21U A62G  self-cleavage            1.54
8     A62U A86G  self-cleavage            1.88
9          G48C  self-cleavage            1.46
